- subject of test: NACHT, LRR and PYD domains-containing protein 3 (Mus musculus)
- Sequence (Q8R4B8 whole entry, the tested form may be a part): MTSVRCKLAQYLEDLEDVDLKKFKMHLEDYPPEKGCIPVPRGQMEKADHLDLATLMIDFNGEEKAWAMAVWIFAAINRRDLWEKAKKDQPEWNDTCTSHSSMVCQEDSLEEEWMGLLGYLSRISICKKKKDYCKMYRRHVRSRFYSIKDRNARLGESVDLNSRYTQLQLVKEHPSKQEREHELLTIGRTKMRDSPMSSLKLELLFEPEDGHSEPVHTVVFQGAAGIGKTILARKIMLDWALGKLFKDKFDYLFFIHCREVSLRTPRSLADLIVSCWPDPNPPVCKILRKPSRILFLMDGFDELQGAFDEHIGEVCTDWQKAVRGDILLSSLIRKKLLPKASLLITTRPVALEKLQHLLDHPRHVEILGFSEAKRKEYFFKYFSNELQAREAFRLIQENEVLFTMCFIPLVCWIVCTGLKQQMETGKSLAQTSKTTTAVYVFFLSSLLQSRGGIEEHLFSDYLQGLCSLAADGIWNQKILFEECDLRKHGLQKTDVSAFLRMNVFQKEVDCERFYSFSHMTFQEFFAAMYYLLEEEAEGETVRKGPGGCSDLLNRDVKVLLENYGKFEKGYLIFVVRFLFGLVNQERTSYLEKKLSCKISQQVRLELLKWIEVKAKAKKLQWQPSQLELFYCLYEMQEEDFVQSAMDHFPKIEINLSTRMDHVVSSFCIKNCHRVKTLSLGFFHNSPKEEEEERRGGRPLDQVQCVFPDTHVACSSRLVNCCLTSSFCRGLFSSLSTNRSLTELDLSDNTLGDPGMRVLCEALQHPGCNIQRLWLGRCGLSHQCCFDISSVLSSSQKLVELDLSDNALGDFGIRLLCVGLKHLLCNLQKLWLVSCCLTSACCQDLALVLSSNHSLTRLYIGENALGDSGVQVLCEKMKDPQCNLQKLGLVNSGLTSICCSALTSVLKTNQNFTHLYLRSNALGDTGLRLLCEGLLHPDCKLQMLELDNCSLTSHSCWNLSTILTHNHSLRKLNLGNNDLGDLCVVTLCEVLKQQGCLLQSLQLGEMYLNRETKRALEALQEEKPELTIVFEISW
- procedure text: Inhibition of NLRP3 inflammasome activation in LPS-primed C57BL/6 mouse bone marrow derived macrophages incubated for 30 mins in presence of ATP by immunoblotting analysis
readout label: pIC50
Please report pIC50 as the negative decimal logarithm of the molar concentration, giving only the number.

Which pIC50 reading was recorded for the compound COc1ccc(/C=C/C(=O)Nc2ccccc2C(=O)O)cc1OC ? 4.60

====

- subject of test: Cyclic GMP-AMP synthase (Homo sapiens, UniProt Q8N884)
- Sequence (Q8N884 whole entry): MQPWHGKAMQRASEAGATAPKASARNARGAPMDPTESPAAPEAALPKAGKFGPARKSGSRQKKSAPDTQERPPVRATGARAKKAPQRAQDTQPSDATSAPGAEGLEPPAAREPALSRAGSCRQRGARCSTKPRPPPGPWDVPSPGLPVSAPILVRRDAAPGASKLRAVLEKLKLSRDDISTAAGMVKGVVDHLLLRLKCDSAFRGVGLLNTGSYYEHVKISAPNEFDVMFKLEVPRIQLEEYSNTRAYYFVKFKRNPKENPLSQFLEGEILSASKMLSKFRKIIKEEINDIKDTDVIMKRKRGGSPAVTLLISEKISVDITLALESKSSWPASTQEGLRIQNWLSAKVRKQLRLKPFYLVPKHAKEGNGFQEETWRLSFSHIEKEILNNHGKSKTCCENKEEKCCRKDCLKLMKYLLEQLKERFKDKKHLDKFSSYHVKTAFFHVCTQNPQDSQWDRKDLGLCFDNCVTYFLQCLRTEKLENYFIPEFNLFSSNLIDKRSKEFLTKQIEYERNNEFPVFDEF
- procedure text: Inhibition of cGAS expressed in human THP-1 cells assessed as reduction of IFN-beta expression by ELISA assay
- Format: cell-based
readout label: pIC50
Please report pIC50 as the negative decimal logarithm of the molar concentration, giving only the number.

Which pIC50 reading was recorded for the compound Cc1nc(N2C[C@@H](CC(=O)Nc3ccncc3)C[C@H]2C(=O)O)c2oc3ccccc3c2n1 ? 4.89
